Sourced from patent US20240124504A1

Measured pIC50 of individual entries
Target: CDK9/cyclinT1 complex (Homo sapiens)
Sequence (P50750 whole entry, species assumed): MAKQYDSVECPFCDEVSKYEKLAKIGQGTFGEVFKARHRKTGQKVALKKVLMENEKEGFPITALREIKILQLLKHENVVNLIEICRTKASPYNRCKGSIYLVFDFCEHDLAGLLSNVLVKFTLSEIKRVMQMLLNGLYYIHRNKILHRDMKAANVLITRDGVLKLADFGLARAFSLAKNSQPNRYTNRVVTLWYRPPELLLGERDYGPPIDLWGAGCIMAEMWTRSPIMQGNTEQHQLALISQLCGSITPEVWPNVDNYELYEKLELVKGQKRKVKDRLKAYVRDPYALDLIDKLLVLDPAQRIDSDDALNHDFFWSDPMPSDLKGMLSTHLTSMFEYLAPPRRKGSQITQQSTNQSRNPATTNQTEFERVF
Sequence (O60563 whole entry partner, species assumed): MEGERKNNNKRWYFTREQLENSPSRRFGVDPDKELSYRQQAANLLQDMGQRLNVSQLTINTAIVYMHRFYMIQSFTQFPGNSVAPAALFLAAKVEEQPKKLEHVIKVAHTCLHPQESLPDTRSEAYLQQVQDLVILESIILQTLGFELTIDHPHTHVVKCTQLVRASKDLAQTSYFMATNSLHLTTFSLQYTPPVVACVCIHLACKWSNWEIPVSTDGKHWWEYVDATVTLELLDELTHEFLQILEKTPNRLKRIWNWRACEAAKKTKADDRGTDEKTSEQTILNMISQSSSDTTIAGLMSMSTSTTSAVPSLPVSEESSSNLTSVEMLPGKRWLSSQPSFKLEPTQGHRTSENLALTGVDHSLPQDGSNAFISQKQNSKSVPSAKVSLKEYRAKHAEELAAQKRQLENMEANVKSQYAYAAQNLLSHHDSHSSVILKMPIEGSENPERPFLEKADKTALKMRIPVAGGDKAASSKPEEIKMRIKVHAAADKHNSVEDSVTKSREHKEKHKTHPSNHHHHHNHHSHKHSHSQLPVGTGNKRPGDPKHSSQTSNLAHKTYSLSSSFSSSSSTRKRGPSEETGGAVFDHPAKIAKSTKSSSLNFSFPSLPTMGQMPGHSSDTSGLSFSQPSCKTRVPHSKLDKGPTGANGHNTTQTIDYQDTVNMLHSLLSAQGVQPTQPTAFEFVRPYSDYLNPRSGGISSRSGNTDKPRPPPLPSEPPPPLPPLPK
Test: In-vitro enzymatic inhibitory activity testing, CDK9 inhibition assay (Caliper EZ Reader II)
Conditions: CDK9/cyclinT1 8 nM, 180 min at 27° C.
pIC50: −log10 of the molar value.

Completed entries (count: 2):
INSERT INTO measurements (compound, readoutkind, endpointvalue) VALUES
  ('C[C@@H](CO)Nc1ncc(F)c(-c2c[nH]c3c(P(C)(C)=O)cccc23)n1 [Compound 157]', 'pIC50', '< 4.30'),
  ('CC1([C@@H](CO)Nc2ncc(C(F)(F)F)c(-c3c[nH]c4c(P(C)(C)=O)cccc34)n2)CC1 [Compound 112]', 'pIC50', '< 4.30');

Proceeding to the next compound to report its pIC50.
(Q) Report pIC50 for CC(CO)CNc1ncc(C(F)(F)F)c(-c2c[nH]c3c(P(C)(C)=O)cccc23)n1 (single isomer, unassigned) [Compound 149]
(A) < 4.30
